- System: Fer (mouse)
- test.protocol: phosphorylation enrichment, bacterial display (enrichment ratio); higher = better substrate or ligand; peptides without Tyr show the background
Hi, to clarify the labels: Yes covers phosphorylation enrichment from 0.6 upward, No covers anything below 0.6.

[
  {
    "primary.sequence": "KLPYLYDDPFS [GPX2_Y127_P126L]",
    "classification": "Yes"
  },
  {
    "primary.sequence": "QRIFQYIQSRF [DYRK1B_Y273_YF]",
    "classification": "Yes"
  },
  {
    "primary.sequence": "RHSGSYLVTSV [APC_Y2838]",
    "classification": "No"
  },
  {
    "primary.sequence": "CQAHGYFCQPI [STK11_Y156_L160P]",
    "classification": "No"
  }
]

From here, focus on the item given below.
Query: API: above_or_equal(metric=phosphorylation enrichment, cutoff=0.6) for item PSSNLYYRCLT [CNGA3_Y168_W171C]
Reply: Yes

----------
- target.desc: FGFR1 (UniProt P11362)
- Sequence (P11362 whole entry, looked up): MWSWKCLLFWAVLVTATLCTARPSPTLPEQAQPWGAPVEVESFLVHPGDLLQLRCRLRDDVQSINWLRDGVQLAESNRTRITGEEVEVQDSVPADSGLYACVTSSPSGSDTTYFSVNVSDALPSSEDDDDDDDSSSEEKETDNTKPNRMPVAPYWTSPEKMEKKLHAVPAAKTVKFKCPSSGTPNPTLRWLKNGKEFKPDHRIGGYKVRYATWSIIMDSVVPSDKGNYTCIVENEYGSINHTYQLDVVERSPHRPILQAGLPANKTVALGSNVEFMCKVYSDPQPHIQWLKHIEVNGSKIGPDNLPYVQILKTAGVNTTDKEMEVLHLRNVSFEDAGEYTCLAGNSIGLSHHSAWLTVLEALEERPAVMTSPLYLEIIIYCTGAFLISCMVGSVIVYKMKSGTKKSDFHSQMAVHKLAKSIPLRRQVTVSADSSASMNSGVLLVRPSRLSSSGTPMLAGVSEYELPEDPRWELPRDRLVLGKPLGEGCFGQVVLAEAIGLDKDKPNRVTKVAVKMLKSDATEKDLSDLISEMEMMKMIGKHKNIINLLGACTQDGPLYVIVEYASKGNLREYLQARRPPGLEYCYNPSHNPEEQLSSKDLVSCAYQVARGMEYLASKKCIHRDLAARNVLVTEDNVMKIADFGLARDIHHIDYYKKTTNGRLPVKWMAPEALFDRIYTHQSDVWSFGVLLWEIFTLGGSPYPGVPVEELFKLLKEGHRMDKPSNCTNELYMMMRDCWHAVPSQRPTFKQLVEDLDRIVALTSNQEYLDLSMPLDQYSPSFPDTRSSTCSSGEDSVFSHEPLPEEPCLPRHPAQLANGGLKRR
- test.protocol: phosphorylation enrichment, bacterial display (enrichment ratio); higher = better substrate or ligand; peptides without Tyr show the background
sequences and their reported phosphorylation enrichment

Some sequences with known phosphorylation enrichment results, for comparison:
[
  {
    "primary.sequence": "PFSNSYENSLI [EPOR_Y489_P488S_YF]",
    "target.desc": "FGFR1 (UniProt P11362)",
    "phosphorylation enrichment": 0.577
  },
  {
    "primary.sequence": "WAFNLYDINKF [KCNIP3_Y174_D179Y_YF]",
    "target.desc": "FGFR1 (UniProt P11362)",
    "phosphorylation enrichment": 0.497
  },
  {
    "primary.sequence": "YRNKPYISWPS [CDC42BPB_Y1638_S1633Y]",
    "target.desc": "FGFR1 (UniProt P11362)",
    "phosphorylation enrichment": 0.394
  },
  {
    "primary.sequence": "YSNKLYYQLEQ [PDPR_Y109]",
    "target.desc": "FGFR1 (UniProt P11362)",
    "phosphorylation enrichment": 8.28
  },
  {
    "primary.sequence": "GISDEYHVIWH [GCDH_Y398_R402W]",
    "target.desc": "FGFR1 (UniProt P11362)",
    "phosphorylation enrichment": 7.06
  }
]

Query: // returns reported phosphorylation enrichment for input LFLASYCIGGG [UBD_Y161_C160S]
Reply: 1.06

Query: // returns reported phosphorylation enrichment for input EKLIQYCQSKG [AKR1B1_Y199]
Reply: 0.44

Query: // returns reported phosphorylation enrichment for input TNGFTCGSSHQ [MANEA_Y331_Y331C]
Reply: 0.46

Query: // returns reported phosphorylation enrichment for input KPGLKYVTYGN [GALNTL5_Y404]
Reply: 0.394

----------
- target.desc: c-Src SH2
- test.protocol: SH2 binding enrichment of the phosphorylated peptide, bacterial display (enrichment ratio); higher = better substrate or ligand; peptides without Tyr show the background
sequences and their reported SH2 binding enrichment
No unit in the answer, please; the number alone is enough.

[
  {
    "primary.sequence": "HDEPTYARSSK [PEAK1_Y616]",
    "target.desc": "c-Src SH2",
    "SH2 binding enrichment": 0.576
  },
  {
    "primary.sequence": "SKDQICPMKLK [RANBP17_Y823_Y823C]",
    "target.desc": "c-Src SH2",
    "SH2 binding enrichment": 0.744
  }
]

Query: // returns reported SH2 binding enrichment for input TFGVLYKARNK [CDK2_Y19_V18L_YF]
Reply: 0.49

Query: // returns reported SH2 binding enrichment for input SSEYHCVGGFY [CTSC_Y347_Y347C]
Reply: 0.398

Query: // returns reported SH2 binding enrichment for input YGAHKYHPLPV [OAT_Y55_N54K]
Reply: 1.36

----------
sequences and their reported SH2 binding enrichment
- target.desc: c-Src SH2;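 also: peptide library displayed on the E. coli surface as eCPX fusions, selected cells deep-sequenced, score is each peptide's frequency after selection divided by its frequency in the input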
- test.protocol: SH2 binding enrichment of the phosphorylated peptide, bacterial display (enrichment ratio); higher = better substrate or ligand; peptides without Tyr show the background
No unit in the answer, please; the number alone is enough.

Some sequences with known SH2 binding enrichment results, for comparison:
[
  {
    "primary.sequence": "RQAQAYRGQRV [TSHR_Y706]",
    "SH2 binding enrichment": 0.385
  },
  {
    "primary.sequence": "RHFSSYSQMEN [PKP1_Y120_R116H]",
    "SH2 binding enrichment": 2.71
  },
  {
    "primary.sequence": "MCVKSYTIHFS [F5_Y2153_Y2149C_YF]",
    "SH2 binding enrichment": 0.485
  }
]

Query: // returns reported SH2 binding enrichment for input LLKNMYLMLDN [STAT1_Y203_K201N]
Reply: 0.945

Query: // returns reported SH2 binding enrichment for input KNKKDYFDMFE [SLC26A3_Y526_YF]
Reply: 0.595

Query: // returns reported SH2 binding enrichment for input SGTYQYIIAKF [FOXL2_Y83_I80T]
Reply: 0.696

----------
- System: Fer (mouse)
- test.protocol: phosphorylation enrichment, bacterial display (enrichment ratio); higher = better substrate or ligand; peptides without Tyr show the background
readout.label: phosphorylation enrichment
No unit in the answer, please; the number alone is enough.

Some sequences with known phosphorylation enrichment results, for comparison:
[
  {
    "primary.sequence": "PPTFRYERGSR [INPPL1_Y663_YF]",
    "phosphorylation enrichment": 0.546
  },
  {
    "primary.sequence": "EEVKAYLDFGE [CHAC2_Y78_R82G]",
    "phosphorylation enrichment": 0.558
  },
  {
    "primary.sequence": "ETGEPCRLSPE [EIF4G1_Y311_Y311C]",
    "phosphorylation enrichment": 0.55
  }
]

Query: Entry FLAVGYHKPHI [IDS_Y225] , system Fer (mouse): what phosphorylation enrichment was measured?
Reply: 0.561

Query: Entry SHGQDYLAGNK [GSTA2_Y147_V149A] , system Fer (mouse): what phosphorylation enrichment was measured?
Reply: 0.421

Query: Entry KDHPDYKFPPR [SOX10_Y171_Q174P_YF] , system Fer (mouse): what phosphorylation enrichment was measured?
Reply: 0.376

Query: Entry IRKDLYSNNVL [ACTC1_Y296_A297S] , system Fer (mouse): what phosphorylation enrichment was measured?
Reply: 0.414

----------
sequences and their reported phosphorylation enrichment
- target.desc: FGFR3 (UniProt P22607)
- Sequence (P22607 whole entry, looked up): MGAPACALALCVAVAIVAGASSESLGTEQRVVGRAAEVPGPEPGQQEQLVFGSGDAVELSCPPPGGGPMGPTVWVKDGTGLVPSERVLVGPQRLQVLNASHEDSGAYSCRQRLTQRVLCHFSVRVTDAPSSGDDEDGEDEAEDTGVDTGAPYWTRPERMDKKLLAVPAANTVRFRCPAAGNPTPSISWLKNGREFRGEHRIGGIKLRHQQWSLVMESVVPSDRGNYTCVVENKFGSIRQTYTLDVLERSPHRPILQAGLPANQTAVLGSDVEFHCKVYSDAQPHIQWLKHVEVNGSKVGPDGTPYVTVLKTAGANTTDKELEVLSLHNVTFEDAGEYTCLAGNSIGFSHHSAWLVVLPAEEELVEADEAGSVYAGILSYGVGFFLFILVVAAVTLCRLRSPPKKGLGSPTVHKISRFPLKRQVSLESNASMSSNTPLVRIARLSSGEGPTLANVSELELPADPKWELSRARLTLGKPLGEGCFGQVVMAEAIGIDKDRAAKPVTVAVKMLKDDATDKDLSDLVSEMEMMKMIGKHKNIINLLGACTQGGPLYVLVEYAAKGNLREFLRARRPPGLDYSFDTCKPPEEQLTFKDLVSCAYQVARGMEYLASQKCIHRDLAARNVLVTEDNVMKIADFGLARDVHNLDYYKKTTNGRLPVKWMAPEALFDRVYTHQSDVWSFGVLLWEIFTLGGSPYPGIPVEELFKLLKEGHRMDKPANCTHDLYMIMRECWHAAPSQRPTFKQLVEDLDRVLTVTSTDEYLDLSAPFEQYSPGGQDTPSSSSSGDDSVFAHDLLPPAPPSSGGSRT
- test.protocol: phosphorylation enrichment, bacterial display (enrichment ratio); higher = better substrate or ligand; peptides without Tyr show the background
No unit in the answer, please; the number alone is enough.

Query: Entry SSEYHCVGGFY [CTSC_Y347_Y347C] , system FGFR3 (UniProt P22607): what phosphorylation enrichment was measured?
Reply: 5.2

Query: Entry QEIATYRRQLE [KRT14_Y415_L418Q] , system FGFR3 (UniProt P22607): what phosphorylation enrichment was measured?
Reply: 0.808

Query: Entry ALVDTYCRHNF [HLA-DRB1_Y107_A103L_YF] , system FGFR3 (UniProt P22607): what phosphorylation enrichment was measured?
Reply: 0.682

Query: Entry ELPQTYCVSGP [DYSF_Y1684_G1679E] , system FGFR3 (UniProt P22607): what phosphorylation enrichment was measured?
Reply: 0.594

Query: Entry FMRGMYFRMTD [PLA2G6_Y541_K545T_YF] , system FGFR3 (UniProt P22607): what phosphorylation enrichment was measured?
Reply: 0.663

----------
- target.desc: Fes (UniProt P07332)
- Sequence (P07332 whole entry, looked up): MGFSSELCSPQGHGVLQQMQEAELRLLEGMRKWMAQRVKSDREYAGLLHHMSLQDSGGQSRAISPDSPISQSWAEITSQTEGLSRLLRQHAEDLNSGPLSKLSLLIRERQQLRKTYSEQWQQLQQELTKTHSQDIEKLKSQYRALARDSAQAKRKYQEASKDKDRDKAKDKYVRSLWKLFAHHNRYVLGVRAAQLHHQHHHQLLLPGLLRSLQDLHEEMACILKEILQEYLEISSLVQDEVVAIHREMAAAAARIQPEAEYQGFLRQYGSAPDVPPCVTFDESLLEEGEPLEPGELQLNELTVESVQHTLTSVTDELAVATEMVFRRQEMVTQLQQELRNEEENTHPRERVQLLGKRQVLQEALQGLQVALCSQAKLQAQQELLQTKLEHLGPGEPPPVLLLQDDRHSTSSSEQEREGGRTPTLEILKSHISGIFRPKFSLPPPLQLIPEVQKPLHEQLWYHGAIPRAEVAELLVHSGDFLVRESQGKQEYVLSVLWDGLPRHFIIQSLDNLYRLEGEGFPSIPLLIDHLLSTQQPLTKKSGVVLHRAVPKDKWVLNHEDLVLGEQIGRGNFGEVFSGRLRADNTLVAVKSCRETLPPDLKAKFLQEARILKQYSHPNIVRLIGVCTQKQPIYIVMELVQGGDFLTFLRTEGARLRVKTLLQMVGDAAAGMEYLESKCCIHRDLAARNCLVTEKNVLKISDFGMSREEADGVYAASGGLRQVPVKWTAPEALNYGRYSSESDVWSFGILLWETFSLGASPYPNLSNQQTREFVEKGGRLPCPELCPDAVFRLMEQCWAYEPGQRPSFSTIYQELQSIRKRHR
- test.protocol: phosphorylation enrichment, bacterial display (enrichment ratio); higher = better substrate or ligand; peptides without Tyr show the background
Label scheme for phosphorylation enrichment: bucket A (below 0.8), bucket B (0.8 to below 1), bucket C (1 or more)

Here's what some known entries look like.
[
  {
    "primary.sequence": "HEPKGYNANFC [TGFB2_Y341]",
    "classification": "bucket B"
  },
  {
    "primary.sequence": "TDRNLYSKNLV [CFAP58_Y501_S496T]",
    "classification": "bucket A"
  },
  {
    "primary.sequence": "SEKISYVFMKR [SSX7_Y48_L43S_YF]",
    "classification": "bucket C"
  },
  {
    "primary.sequence": "VPTSKYRGGGG [HBA1_Y141_L137P]",
    "classification": "bucket A"
  },
  {
    "primary.sequence": "RMSQRYGDVLQ [CYP1A2_Y72]",
    "classification": "bucket B"
  }
]

Query: Hi, small favor: classify LRLFSYSTTIR [CYP7B1_Y365_S363F] by its phosphorylation enrichment when you get a moment.
Reply: bucket C

Query: Hi, small favor: classify RKQQLYTAMEE [CCDC39_Y593] by its phosphorylation enrichment when you get a moment.
Reply: bucket B

Query: Hi, small favor: classify VRFMAYTDEIF [F8_Y450_T454I] by its phosphorylation enrichment when you get a moment.
Reply: bucket C

Query: Hi, small favor: classify CTTIHYNFMCI [TP53_Y234_N239I_YF] by its phosphorylation enrichment when you get a moment.
Reply: bucket C

Query: Hi, small favor: classify TFEFRYLEDQD [CNOT3_Y746_R750Q_YF] by its phosphorylation enrichment when you get a moment.
Reply: bucket C

Query: Hi, small favor: classify DTKDDYSALSV [IL17RB_Y457_N458S] by its phosphorylation enrichment when you get a moment.
Reply: bucket C

Query: Hi, small favor: classify VMTLDYSKTVV [SETD2_Y770_V768L] by its phosphorylation enrichment when you get a moment.
Reply: bucket A

Query: Hi, small favor: classify RMLREYQELMS [KRT74_Y425] by its phosphorylation enrichment when you get a moment.
Reply: bucket B

Query: Hi, small favor: classify VIKDKYPQARY [APTX_Y209_K211Q] by its phosphorylation enrichment when you get a moment.
Reply: bucket A

Query: Hi, small favor: classify AQQPIYIRVEG [NLRP7_Y318_V319I] by its phosphorylation enrichment when you get a moment.
Reply: bucket C

Query: Hi, small favor: classify LRGEDCGFSVD [PRKCI_Y430_Y430C] by its phosphorylation enrichment when you get a moment.
Reply: bucket C

Query: Hi, small favor: classify EEVKAYLDFGE [CHAC2_Y78_R82G] by its phosphorylation enrichment when you get a moment.
Reply: bucket C

Query: Hi, small favor: classify EWLRGYLENGK [HLA-C_Y195_R194G] by its phosphorylation enrichment when you get a moment.
Reply: bucket B

Query: Hi, small favor: classify GTATAYLCGVK [ALPL_Y117] by its phosphorylation enrichment when you get a moment.
Reply: bucket C
